# experimental details: Solubility in PBS
# Format: physicochemical
Measured Solubility by item
reported endpoint: Solubility (µM)

CC[C@H](C)[C@@H]1NC(=O)[C@H](CC(=O)O)NC(=O)[C@]2(CC=CCCCC3(CCCC=CCCCCCC[C@@](C)(C(=O)N[C@@H](Cc4ccsc4)C(=O)N[C@@H](Cc4csc5ccccc45)C(N)=O)NC(=O)[C@H](CC(N)=O)NC(=O)[C@H](Cc4ccccc4)NC(=O)[C@H](C)NC(=O)[C@H](C)NC(=O)[C@H](CCC(=O)O)NC(=O)[C@H](CC(=O)O)NC3=O)NC1=O)CCCN2C(C)=O (some centres unmarked) [I-721] = 28
CC(=O)N1CCC[C@]12CC=CCCCC1(CCCC=CCCCOC(=O)N3CC[C@@](C(=O)N[C@@H](Cc4ccsc4)C(=O)N[C@@H](Cc4csc5ccccc45)C(N)=O)(C3)NC(=O)[C@H](CC(N)=O)NC(=O)[C@H](Cc3ccccc3)NC(=O)[C@H](C)NC(=O)[C@H](C)NC(=O)[C@H]([C@@H](C)O)NC(=O)[C@H](CC(=O)O)NC1=O)NC(=O)[C@H](CC(C)(C)C)NC(=O)[C@H](CC(=O)O)NC2=O (some centres unmarked) = 10
CCN(CC(=O)O)C[C@@H]1NC(=O)[C@H](CC(=O)O)NC(=O)C2(CCCC=CCCCOC(=O)N3CC[C@@](C(=O)N[C@@H](Cc4ccsc4)C(=O)N[C@@H](Cc4csc5ccccc45)C(=O)N[C@@H](CCC(N)=O)C(N)=O)(C3)NC(=O)[C@H](CC(C)C)NC(=O)[C@H](Cc3ccccc3)NC(=O)[C@H](C)NC(=O)[C@H](C)NC1=O)CCCC=CC[C@]1(CCCN1C(C)=O)C(=O)N[C@@H](CC(=O)O)C(=O)N[C@@H](CC(C)(C)C)C(=O)N2 (some centres unmarked) [I-973] = 10
CC(=O)N1CCC[C@]12CC=CCCCC1(CCCC=CCCCOC(=O)N3CC[C@@](C(=O)N[C@@H](Cc4ccccc4)C(=O)N[C@@H](Cc4csc5ccccc45)C(=O)N[C@@H](CCC(N)=O)C(N)=O)(C3)NC(=O)[C@H](CC(C)C)NC(=O)[C@H](Cc3ccccc3)NC(=O)[C@H](C)NC(=O)[C@H](C)NC(=O)[C@H]([C@@H](C)O)NC(=O)[C@H](CC(N)=O)NC1=O)NC(=O)[C@H](C)NC(=O)[C@H](CC(=O)O)NC2=O (some centres unmarked) [I-1296] = 10
CC(=O)N1CCC[C@]12CC=CCCCC1(CCCC=CCCCCCC[C@@](C)(C(=O)N[C@@H](Cc3ccccc3)C(=O)N[C@@H](Cc3csc4ccccc34)C(=O)N[C@@H](CCC(N)=O)C(N)=O)NC(=O)[C@H]([C@@H](C)O)NC(=O)[C@H](Cc3ccccc3)NC(=O)[C@H](C)NC(=O)[C@H](C)NC(=O)[C@H](CC(=O)O)NC(=O)[C@H](CC(=O)O)NC1=O)NC(=O)[C@H](C)NC(=O)[C@H](CC(=O)O)NC2=O (some centres unmarked) = 50
